From various publications: IC50 for ROCK2 (Homo sapiens).
Answer format: numeric, nM implied, no suffix.

Previously resolved entries follow.
Molecule: COc1cc(C(=O)NC(C)c2ccccc2Cl)ccc1-c1cn[nH]c1 (racemic)
Assay target: ROCK2 (Homo sapiens)
Sequence (O75116 whole entry): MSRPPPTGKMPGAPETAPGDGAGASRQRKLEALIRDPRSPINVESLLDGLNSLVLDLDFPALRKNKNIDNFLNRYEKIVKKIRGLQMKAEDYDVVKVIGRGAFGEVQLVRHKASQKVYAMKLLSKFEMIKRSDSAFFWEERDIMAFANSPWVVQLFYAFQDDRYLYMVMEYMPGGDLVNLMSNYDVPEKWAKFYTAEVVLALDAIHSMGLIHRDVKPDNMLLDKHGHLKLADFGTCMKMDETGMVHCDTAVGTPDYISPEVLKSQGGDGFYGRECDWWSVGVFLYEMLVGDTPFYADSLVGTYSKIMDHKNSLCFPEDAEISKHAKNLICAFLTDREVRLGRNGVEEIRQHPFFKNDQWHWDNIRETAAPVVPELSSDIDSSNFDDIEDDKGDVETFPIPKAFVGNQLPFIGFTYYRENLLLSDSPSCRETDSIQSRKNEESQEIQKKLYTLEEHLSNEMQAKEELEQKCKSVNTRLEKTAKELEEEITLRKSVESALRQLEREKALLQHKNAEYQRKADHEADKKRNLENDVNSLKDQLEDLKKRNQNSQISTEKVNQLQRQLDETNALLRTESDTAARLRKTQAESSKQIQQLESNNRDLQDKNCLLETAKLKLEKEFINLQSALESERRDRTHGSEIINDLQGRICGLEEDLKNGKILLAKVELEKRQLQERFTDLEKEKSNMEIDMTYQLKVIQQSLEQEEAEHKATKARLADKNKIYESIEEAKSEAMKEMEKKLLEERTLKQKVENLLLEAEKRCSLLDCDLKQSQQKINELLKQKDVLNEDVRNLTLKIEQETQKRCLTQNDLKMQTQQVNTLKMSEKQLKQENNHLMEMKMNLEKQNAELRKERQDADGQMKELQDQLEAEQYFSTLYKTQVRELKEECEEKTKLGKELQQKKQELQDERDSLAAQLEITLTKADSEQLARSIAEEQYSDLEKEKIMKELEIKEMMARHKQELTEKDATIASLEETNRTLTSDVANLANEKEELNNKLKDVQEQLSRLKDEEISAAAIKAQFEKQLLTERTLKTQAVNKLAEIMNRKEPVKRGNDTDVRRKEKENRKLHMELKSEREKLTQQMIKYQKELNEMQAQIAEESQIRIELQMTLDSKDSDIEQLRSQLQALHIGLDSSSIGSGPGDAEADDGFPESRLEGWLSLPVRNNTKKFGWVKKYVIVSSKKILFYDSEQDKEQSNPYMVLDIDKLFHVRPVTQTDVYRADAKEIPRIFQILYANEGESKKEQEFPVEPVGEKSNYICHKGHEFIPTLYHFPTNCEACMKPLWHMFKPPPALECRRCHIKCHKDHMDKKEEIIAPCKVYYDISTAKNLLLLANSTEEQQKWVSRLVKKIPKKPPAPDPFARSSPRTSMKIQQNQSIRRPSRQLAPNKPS
IC50 (nM): 8.99

Molecule: NC[C@@H](C(=O)Nc1cc2ccncc2s1)c1ccc(COC(=O)[C@H]2CC[C@@H](O[N+](=O)[O-])CC2)cc1
Assay target: ROCK2 (Homo sapiens)
IC50 (nM): 1.33

Molecule: CC(C)NC(=O)N1Cc2ccc(-c3nccc(Nc4ccc5[nH]ncc5c4)n3)cc2C1
Assay target: ROCK2 (Homo sapiens)
IC50 (nM): 73

Molecule: COc1cccc(C(CN2CCNCC2)NC(=O)c2cccc(-c3ccc4[nH]nc(C)c4c3)c2)c1 (stereo not shown)
Assay target: ROCK2 (Homo sapiens)
IC50 (nM): 44

Molecule: COc1cc(-c2cn[nH]c2)ccc1C(=O)NC(c1ccccc1F)C(C)(C)O (stereo not shown)
Assay target: ROCK2 (Homo sapiens)
IC50 (nM): 6.52

Consider the molecule COc1cc(C(=O)N[C@H](C)c2ccccc2)ccc1-c1cn[nH]c1 tested on ROCK2 (Homo sapiens); state its IC50.
1.48

# assay system ROCK2 (Homo sapiens): give IC50 of NC(=O)c1cccnc1O[C@H]1C[C@@]2(C[C@H](Nc3nnc(-c4ccc(F)cc4)o3)C2)C1 (stereo partly shown)
70

Please look at O=C(NC1CCCCC1)c1cc2ccc(-c3nccc(Nc4ccc5[nH]ncc5c4)n3)cc2s1 and tell me its recorded IC50 on ROCK2 (Homo sapiens).
185

Send back ROCK2 (Homo sapiens) IC50 of COc1cc(C(=O)NCC(C#N)c2ccccc2)ccc1-c1cn[nH]c1 (stereo not shown) only.
27.7

Provide ROCK2 (Homo sapiens) IC50 reading for NC(=O)c1cccnc1Oc1ccc(CC(=O)Nc2nc3c(F)cccc3n2CC2CC2)cc1F .
16
